For each entry below, report its Activity value.
- Tested on: Mus musculus
- method notes: Antiinflammatory activity in CF1 mouse assessed as increase in foot weight at 20 mg/kg, ip administered 3 hrs and 30 mins prior to carrageenan-challenge measured after 3 hrs (reference value: 97 +/- 10 mg)
- Assay type: functional
- applied conditions: route intraperitoneal

Worked examples follow.
[
  {
    "molecule": "N#CCOC(=O)[C@H](Cc1ccccc1)NC(=O)c1ccccc1",
    "Activity": "43 mg"
  },
  {
    "molecule": "CC(C)C[C@H](NC(=O)c1ccccc1)C(=O)OCC#N",
    "Activity": "77 mg"
  },
  {
    "molecule": "N#CCOC(=O)[C@H](Cc1ccccc1)NC(=O)OCc1ccccc1",
    "Activity": "39 mg"
  },
  {
    "molecule": "N#CCOC(=O)[C@H](Cc1ccc(O)cc1)NC(=O)c1ccccc1",
    "Activity": "75 mg"
  },
  {
    "molecule": "N#CCOC(=O)CCCCCNC(=O)c1ccccc1",
    "Activity": "65 mg"
  }
]

Give measured Activity for every item shown.
1. N#CCOC(=O)CCNC(=O)c1ccccc1
2. COc1ccc2c(c1)c(CC(=O)O)c(C)n2C(=O)c1ccc(Cl)cc1
3. N#CCOC(=O)[C@@H]1CCCN1C(=O)c1ccccc1
4. N#CCOC(=O)CNC(=O)c1ccccc1
5. N#CCOC(=O)CNC(=O)OCc1ccccc1
6. CCC(C)C(NC(=O)c1ccccc1)C(=O)OCC#N (configuration not stated)
7. N#CCOC(=O)CCCNC(=O)c1ccccc1

output:
1: 75 mg; 2: 97 mg; 3: 67 mg; 4: 55 mg; 5: 48 mg; 6: 89 mg; 7: 68 mg

---

- Test system: Mus musculus
- method notes: Antiinflammatory activity in CF1 mouse assessed as inhibition of carrageenan-induced paw edema at 20 mg/kg, ip administered 3 hrs and 30 mins prior to carrageenan-challenge measured after 3 hrs (reference value: 0%)
- Assay type: functional
- applied conditions: route intraperitoneal
property measured: inhibition in vivo at 20 mg/kg (%)
Give bare numbers, in %.

Worked examples follow.
[
  {
    "compound": "N#CCOC(=O)CCCNC(=O)c1ccccc1",
    "uom": "%",
    "inhibition in vivo at 20 mg/kg": 37
  },
  {
    "compound": "N#CCOC(=O)[C@@H]1CCCN1C(=O)c1ccccc1",
    "uom": "%",
    "inhibition in vivo at 20 mg/kg": 39
  }
]

Give measured inhibition in vivo at 20 mg/kg for every item shown.
1. C[C@H](NC(=O)c1ccccc1)C(=O)OCC#N
2. N#CCOC(=O)[C@H](Cc1ccccc1)NC(=O)[C@H](Cc1ccccc1)NC(=O)OCc1ccccc1
3. CC(=O)N[C@@H](Cc1ccccc1)C(=O)OCC#N
4. N#CCOC(=O)[C@H](Cc1ccccc1)NC(=O)c1ccccc1

output:
1: 49; 2: 30; 3: 44; 4: 51

Give measured inhibition in vivo at 20 mg/kg for every item shown.
1. N#CCOC(=O)CCCCCNC(=O)OCc1ccccc1
2. N#CCOC(=O)CNC(=O)OCc1ccccc1

output:
1. 28
2. 45

Give measured inhibition in vivo at 20 mg/kg for every item shown.
1. Cc1ccc(S(=O)(=O)N[C@@H](Cc2ccccc2)C(=O)OCC#N)cc1
2. COc1ccc2c(c1)c(CC(=O)O)c(C)n2C(=O)c1ccc(Cl)cc1 [INDOMETHACIN]
3. CC(C)C(NC(=O)c1ccccc1)C(=O)OCC#N (stereo unspecified)

output:
[21, 0, 24]

The reported measurements were obtained from ChEMBL document CHEMBL3244350.
